assay: Metabolic stability in human serum assessed as half life at 250 uM by RP-HPLC analysis; type: ADME, cell-free

| molecule | u | inequality.operator | half-life at 250 µM |
| --- | --- | --- | --- |
| CC(=O)Oc1ccccc1C(=O)OCOC(=O)c1ccc(CC(CO[N+](=O)[O-])O[N+](=O)[O-])cc1 (stereo not drawn) | min | = | 3.4 |
| CC(=O)Oc1ccccc1C(=O)OCOC(=O)CCCCCCO[N+](=O)[O-] | min | < | 1 |
| CC(=O)Oc1ccccc1C(=O)OCOC(=O)c1ccc(SCC(CO[N+](=O)[O-])O[N+](=O)[O-])cc1 (stereo not drawn) | min | = | 4.6 |

====

assay: Chemical stability in acidic medium at pH 1 assessed as unchanged drug level at 0.5 mM after 3 hrs by RP-HPLC analysis; type: physicochemical; conditions: read-out: Stability
Consider the following compounds and their measured remaining at 3 h, 500 µM readings.
test.readout: remaining at 3 h, 500 µM (%)

| compound | result.value |
| --- | --- |
| CC(=O)Oc1ccccc1C(=O)OCOC(=O)c1ccc(CCCO[N+](=O)[O-])cc1 | 98 |
| CC(=O)Oc1ccccc1C(=O)OCOC(=O)c1ccc(SCCCO[N+](=O)[O-])cc1 | 99 |
| CC(=O)Oc1ccccc1C(=O)OC(C)OC(=O)c1ccc(SCCCO[N+](=O)[O-])cc1 (stereo not given) | 98 |
| CC(=O)Oc1ccccc1C(=O)OCOC(=O)c1ccc(CC(CO[N+](=O)[O-])O[N+](=O)[O-])cc1 (stereo not given) | 99 |
| CC(=O)Oc1ccccc1C(=O)OCOC(=O)CCCCC(CO[N+](=O)[O-])O[N+](=O)[O-] (stereo not given) | 99 |

====

Consider the following compounds and their measured remaining at 3 h, 500 µM readings.
assay: Chemical stability in acidic medium at pH 1 assessed as unchanged drug level at 0.5 mM after 3 hrs by RP-HPLC analysis; format: physicochemical; conditions: read-out: Stability
test.readout: remaining at 3 h, 500 µM (%)

| compound | u | result.value |
| --- | --- | --- |
| CC(=O)Oc1ccccc1C(=O)OCOC(=O)CCCC(CO[N+](=O)[O-])O[N+](=O)[O-] (configuration not stated) | % | 99 |
| CC(=O)Oc1ccccc1C(=O)OCOC(=O)CCCCCO[N+](=O)[O-] | % | 99 |
| CC(=O)Oc1ccccc1C(=O)OCOC(=O)c1ccc([S+]([O-])CCCO[N+](=O)[O-])cc1 (configuration not stated) | % | 98 |
| CC(=O)Oc1ccccc1C(=O)OCOC(=O)c1ccc(OCCCO[N+](=O)[O-])cc1 | % | 99 |
| CC(=O)Oc1ccccc1C(=O)OCOC(=O)CCCCCCO[N+](=O)[O-] | % | 99 |
| CC(=O)Oc1ccccc1C(=O)OCOC(=O)c1cccc(OCCCO[N+](=O)[O-])c1 | % | 99 |
| CC(=O)Oc1ccccc1C(=O)O | % | 90 |
| CC(=O)Oc1ccccc1C(=O)OCOC(=O)c1ccc(OCC(CO[N+](=O)[O-])O[N+](=O)[O-])cc1 (configuration not stated) | % | 99 |
| CC(=O)Oc1ccccc1C(=O)OCOC(=O)c1ccccc1OCCCO[N+](=O)[O-] | % | 99 |
| CC(=O)Oc1ccccc1C(=O)OCOC(=O)c1ccc(SCC(CO[N+](=O)[O-])O[N+](=O)[O-])cc1 (configuration not stated) | % | 98 |
| CC(=O)Oc1ccccc1C(=O)OCOC(=O)c1ccc(S(=O)(=O)CCCO[N+](=O)[O-])cc1 | % | 98 |
| CC(=O)Oc1ccccc1C(=O)OCOC(=O)c1cccc(CO[N+](=O)[O-])n1 | % | 84 |

====

test: Metabolic stability in human serum assessed as half life at 250 uM by RP-HPLC analysis; format: ADME, cell-free
Consider the following compounds and their measured half-life at 250 µM readings.
test.readout: half-life at 250 µM

| compound | test.readout | result.value |
| --- | --- | --- |
| CC(=O)Oc1ccccc1C(=O)OCOC(=O)c1ccc([S+]([O-])CCCO[N+](=O)[O-])cc1 (centres undefined) | half-life at 250 µM | < 1 min |
| CC(=O)Oc1ccccc1C(=O)OC(C)OC(=O)c1ccc(SCCCO[N+](=O)[O-])cc1 (centres undefined) | half-life at 250 µM | 4.4 min |
| CC(=O)Oc1ccccc1C(=O)OCOC(=O)CCCCC(CO[N+](=O)[O-])O[N+](=O)[O-] (centres undefined) | half-life at 250 µM | < 1 min |
| CC(=O)Oc1ccccc1C(=O)OCOC(=O)c1ccccc1OCCCO[N+](=O)[O-] | half-life at 250 µM | < 1 min |
| CC(=O)Oc1ccccc1C(=O)OCOC(=O)c1ccc(SCCCO[N+](=O)[O-])cc1 | half-life at 250 µM | 2.4 min |
| CC(=O)Oc1ccccc1C(=O)OCOC(=O)c1cccc(CO[N+](=O)[O-])n1 | half-life at 250 µM | < 1 min |
| CC(=O)Oc1ccccc1C(=O)OCOC(=O)CCCC(CO[N+](=O)[O-])O[N+](=O)[O-] (centres undefined) | half-life at 250 µM | < 1 min |
| CC(=O)Oc1ccccc1C(=O)OCOC(=O)c1ccc(OCCCO[N+](=O)[O-])cc1 | half-life at 250 µM | 3.4 min |
| CC(=O)Oc1ccccc1C(=O)OCOC(=O)c1ccc(S(=O)(=O)CCCO[N+](=O)[O-])cc1 | half-life at 250 µM | < 1 min |

====

Consider the following molecules and their measured Activity readings.
test system: Serum; assay: Metabolic stability in human serum assessed as maximal amount of aspirin released at 250 uM by RP-HPLC analysis; format: ADME, cell-free

| molecule | u | Activity |
| --- | --- | --- |
| CC(=O)Oc1ccccc1C(=O)OCOC(=O)c1ccc([S+]([O-])CCCO[N+](=O)[O-])cc1 (stereo not drawn) | % | 70.7 |
| CC(=O)Oc1ccccc1C(=O)OCOC(=O)c1ccc(S(=O)(=O)CCCO[N+](=O)[O-])cc1 | % | 59.2 |
| CC(=O)Oc1ccccc1C(=O)OCOC(=O)c1ccc(OCC(CO[N+](=O)[O-])O[N+](=O)[O-])cc1 (stereo not drawn) | % | 22.4 |
| CC(=O)Oc1ccccc1C(=O)OCOC(=O)c1ccc(SCC(CO[N+](=O)[O-])O[N+](=O)[O-])cc1 (stereo not drawn) | % | 43 |
| CC(=O)Oc1ccccc1C(=O)OCOC(=O)CCCCC(CO[N+](=O)[O-])O[N+](=O)[O-] (stereo not drawn) | % | 9.8 |
| CC(=O)Oc1ccccc1C(=O)OCOC(=O)c1ccc(OCCCO[N+](=O)[O-])cc1 | % | 39.8 |
| CC(=O)Oc1ccccc1C(=O)OCOC(=O)c1cccc(CO[N+](=O)[O-])n1 | % | 58 |
| CC(=O)Oc1ccccc1C(=O)OCOC(=O)c1ccc(CC(CO[N+](=O)[O-])O[N+](=O)[O-])cc1 (stereo not drawn) | % | 34.2 |

====

Consider the following compounds and their measured Activity readings.
system: Serum; test: Metabolic stability in human serum assessed as maximal amount of aspirin released at 250 uM by RP-HPLC analysis; format: ADME, cell-free

| compound | Activity |
| --- | --- |
| CC(=O)Oc1ccccc1C(=O)OCOC(=O)c1cccc(OCCCO[N+](=O)[O-])c1 | 48.3% |
| CC(=O)Oc1ccccc1C(=O)OCOC(=O)c1ccccc1OCCCO[N+](=O)[O-] | 5% |
| CC(=O)Oc1ccccc1C(=O)OCOC(=O)CCCCCO[N+](=O)[O-] | 10.1% |
| CC(=O)Oc1ccccc1C(=O)OC(C)OC(=O)c1ccc(SCCCO[N+](=O)[O-])cc1 (stereo not drawn) | 29.4% |
| CC(=O)Oc1ccccc1C(=O)OCOC(=O)c1ccc(CCCO[N+](=O)[O-])cc1 | 65.2% |
| CC(=O)Oc1ccccc1C(=O)OCOC(=O)CCCCCCO[N+](=O)[O-] | 17.6% |
| CC(=O)Oc1ccccc1C(=O)OCOC(=O)c1ccc(SCCCO[N+](=O)[O-])cc1 | 61.7% |
| CC(=O)Oc1ccccc1C(=O)OCOC(=O)CCCC(CO[N+](=O)[O-])O[N+](=O)[O-] (stereo not drawn) | 10.6% |

====

assay: Metabolic stability in human serum assessed as half life at 250 uM by RP-HPLC analysis; format: ADME, cell-free
test.readout: half-life at 250 µM (min)

| molecule | inequality.operator | result.value |
| --- | --- | --- |
| CC(=O)Oc1ccccc1C(=O)OCOC(=O)c1ccc(OCC(CO[N+](=O)[O-])O[N+](=O)[O-])cc1 (stereo not given) | = | 5.4 |
| CC(=O)Oc1ccccc1C(=O)OCOC(=O)c1ccc(CCCO[N+](=O)[O-])cc1 | = | 1.9 |
| CC(=O)Oc1ccccc1C(=O)OCOC(=O)c1cccc(OCCCO[N+](=O)[O-])c1 | = | 1.4 |
| CC(=O)Oc1ccccc1C(=O)O | = | 63 |
| CC(=O)Oc1ccccc1C(=O)OCOC(=O)CCCCCO[N+](=O)[O-] | < | 1 |
